# system_tested: eDHFR-YFP (Escherichia coli)
# Sequence (P0ABQ4 1-159): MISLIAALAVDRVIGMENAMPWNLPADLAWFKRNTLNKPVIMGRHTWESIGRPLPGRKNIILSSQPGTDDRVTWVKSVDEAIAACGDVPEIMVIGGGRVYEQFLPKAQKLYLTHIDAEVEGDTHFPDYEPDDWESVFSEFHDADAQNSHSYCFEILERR
# protocol_notes: Radioligand binding to eDHFR-YFP expressing cells
# Design: species or system E. coli
# experimental_conditions: Kd, I45 cells
measured_attribute: Kd

The compound listed as COc1cc(Cc2cnc(N)nc2N)cc([At])c1OC [[^211At]At-TMP] has a reported Kd of 4.8 nM
